meta.source: ChEMBL document CHEMBL1201861

Entries annotated with measured pIC50
system: HSC-2; assay: cells; format: functional, cell-based; settings: Homo sapiens;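 also: growth inhibition of human HSC-2 cells, read out by a cell viability assay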
Description: SANGER: Inhibition of human HSC-2 cell growth in a cell viability assay.
For clarity, pIC50 is expressed as the negative log10 of concentration in mol/L.

{"Compound": "C/C(=C\\c1csc(C)n1)[C@@H]1C[C@@H]2O[C@]2(C)CCC[C@H](C)[C@H](O)[C@@H](C)C(=O)C(C)(C)[C@@H](O)CC(=O)O1 [PATUPILONE]", "Assay metric": "pIC50", "Measurement": 9.44}

Consider the additional compound presented here.
Query: Give pIC50 for COc1ccc(-c2cc3nccn3c(Nc3ncccc3C(N)=O)n2)cc1OC
Reply: 5.34

----------
tested on: BV-173; test: cells; assay type: functional, cell-based, Homo sapiens; details: bv-173
Description: SANGER: Inhibition of human BV-173 cell growth in a cell viability assay.
pIC50: −log10 of the molar value. Where a SMILES comes first, the peptide text is derived from it. The star is where a group is joined. Cbz = O=C(OCc1ccccc1)*
Assay metric: pIC50

Query: Give pIC50 for CC(C)C[C@@H](C=O)NC(=O)[C@H](CC(C)C)NC(=O)[C@H](CC(C)C)NC(=O)OCc1ccccc1 [MG-132] (Cbz-Leu-Leu-Leu-aldehyde)
Reply: < 6.00

----------
Entries annotated with measured IC50
tested on: L-363; assay: cells; format: functional, cell-based, Homo sapiens; details: Homo sapiens, L-363
Description: SANGER: Inhibition of human L-363 cell growth in a cell viability assay.
Give the number; nM is assumed, so skip it.

{"Substance smiles": "Cc1cc(N2CCOCC2)cc2[nH]c(-c3c(NC[C@@H](O)c4cccc(Cl)c4)cc[nH]c3=O)nc12", "Assay metric": "IC50", "Measurement": 328}
{"Substance smiles": "COc1ccc(-c2cc3nccn3c(Nc3ncccc3C(N)=O)n2)cc1OC", "Assay metric": "IC50", "Measurement": 2930}

Consider the additional compound presented here.
Query: Give IC50 for C/C(=C\c1csc(C)n1)[C@@H]1C[C@@H]2O[C@]2(C)CCC[C@H](C)[C@H](O)[C@@H](C)C(=O)C(C)(C)[C@@H](O)CC(=O)O1
Reply: 5.88

----------
test system: EW-13; assay: cells; format: functional, cell-based, Homo sapiens; conditions: Homo sapiens, EW-13;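 also: growth inhibition of EW-13 cells, read out with a cell viability assay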
Description: SANGER: Inhibition of human EW-13 cell growth in a cell viability assay.
pIC50: −log10 of the molar value.
Assay metric: pIC50

Query: Give pIC50 for Cc1ccc(NC(=O)c2ccc(CN3CCN(C)CC3)cc2)cc1Nc1nccc(-c2cccnc2)n1
Reply: < 5.70

----------
tested on: NCI-N87; experiment: cells; type: functional, cell-based; conditions: Homo sapiens
Description: SANGER: Inhibition of human NCI-N87 cell growth in a cell viability assay.
pIC50: −log10 of the molar value.
Entries annotated with measured pIC50

Query: Give pIC50; test system NCI-N87; molecule CC1(C)CCC(c2ccc(Cl)cc2)=C(CN2CCN(c3ccc(C(=O)NS(=O)(=O)c4ccc(N[C@H](CCN5CCOCC5)CSc5ccccc5)c(S(=O)(=O)C(F)(F)F)c4)cc3)CC2)C1
Reply: < 5.70

Query: Give pIC50; test system NCI-N87; molecule C/C(=C\c1csc(C)n1)[C@@H]1C[C@@H]2O[C@]2(C)CCC[C@H](C)[C@H](O)[C@@H](C)C(=O)C(C)(C)[C@@H](O)CC(=O)O1
Reply: 7.52

Query: Give pIC50; test system NCI-N87; molecule O=S(=O)(O)c1ccc2cc(/N=N/c3cc(S(=O)(=O)O)c4cccnc4c3O)ccc2c1
Reply: < 4.80

Query: Give pIC50; test system NCI-N87; molecule CN(NC(=O)CC(=O)NN(C)C(=S)c1ccccc1)C(=S)c1ccccc1
Reply: < 6.70

----------
tested on: NCI-H524; assay: cells; type: functional, cell-based, Homo sapiens; conditions: Homo sapiens, NCI-H524;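 also: growth inhibition of human NCI-H524 cells, read out through a cell viability assay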
Description: SANGER: Inhibition of human NCI-H524 cell growth in a cell viability assay.
pIC50: −log10 of the molar value.
Assay metric: pIC50

Query: Give pIC50 for Nc1ccccc1NC(=O)c1ccc(CNC(=O)OCc2cccnc2)cc1
Reply: 6.26

Query: Give pIC50 for Cc1ccc(C(=O)Nc2ccc(CN3CCN(C)CC3)c(C(F)(F)F)c2)cc1C#Cc1cnc2cccnn12
Reply: < 6.29

Query: Give pIC50 for OC[C@H](Cc1ccccc1)Nc1nc(Oc2ccc3c(c2)CCC3)nc2c1ncn2Cc1ccc(-c2ccccc2)cc1
Reply: < 4.99

Query: Give pIC50 for C[C@@H](Oc1cc(-c2cnn(C3CCNCC3)c2)cnc1N)c1c(Cl)ccc(F)c1Cl
Reply: < 5.70

Query: Give pIC50 for COc1ccc(N(C(=O)Oc2c(C)cccc2C)c2ccnc(Nc3ccc(N4CCN(C)CC4)cc3)n2)c(OC)c1
Reply: < 5.29

----------
tested on: CAL-72; assay: cells; type: functional, cell-based; conditions: Homo sapiens;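 also: cell viability assay measuring inhibition of proliferation in the CAL-72 cell line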
Description: SANGER: Inhibition of human CAL-72 cell growth in a cell viability assay.
Assay metric: IC50

{"Substance smiles": "NC1(c2ccc(-c3nc4ccn5c(=O)[nH]nc5c4cc3-c3ccccc3)cc2)CCC1", "IC50": "> 4 µM"}
{"Substance smiles": "CC1(C)CCC(c2ccc(Cl)cc2)=C(CN2CCN(c3ccc(C(=O)NS(=O)(=O)c4ccc(N[C@H](CCN5CCOCC5)CSc5ccccc5)c(S(=O)(=O)C(F)(F)F)c4)cc3)CC2)C1", "IC50": "> 2 µM"}
{"Substance smiles": "OC[C@H](Cc1ccccc1)Nc1nc(Oc2ccc3c(c2)CCC3)nc2c1ncn2Cc1ccc(-c2ccccc2)cc1", "IC50": "> 10.2 µM"}
{"Substance smiles": "O=C1NC(=O)c2c1c(-c1ccccc1Cl)cc1[nH]c3ccc(O)cc3c21", "IC50": "1.82 µM"}
{"Substance smiles": "NC(=O)Nc1cc(-c2cccc(F)c2)sc1C(=O)N[C@H]1CCCNC1", "IC50": "> 2 µM"}

Consider the additional compound presented here.
Query: Give IC50 for NC(=O)c1ccc(N(C(N)=O)c2c(F)cccc2F)nc1-c1ccc(F)cc1F
Reply: > 2 µM

----------
system: LAMA-84; experiment: cells; format: functional, cell-based, Homo sapiens; details: Homo sapiens, LAMA-84
Description: SANGER: Inhibition of human LAMA-84 cell growth in a cell viability assay.
pIC50: −log10 of the molar value.
Assay metric: pIC50

Examples with answers:
{"Compound": "Cc1cc(N2CCOCC2)cc2[nH]c(-c3c(NC[C@@H](O)c4cccc(Cl)c4)cc[nH]c3=O)nc12", "pIC50": "< 5.29"}
{"Compound": "Cc1ccc(-n2nc(C(C)(C)C)cc2NC(=O)Nc2ccc(OCCN3CCOCC3)c3ccccc23)cc1 [DORAMAPIMOD]", "pIC50": "< 5.00"}
{"Compound": "COc1ccc(N(C(=O)Oc2c(C)cccc2C)c2ccnc(Nc3ccc(N4CCN(C)CC4)cc3)n2)c(OC)c1", "pIC50": "> 7.70"}
{"Compound": "CC1=C(/C=C/C(C)=C/C=C/C(C)=C/C(=O)O)C(C)(C)CCC1 [TRETINOIN]", "pIC50": 6.00}

Query: Give pIC50 for COC(=O)[C@H](CCSC)NC(=O)c1ccc(NC[C@@H](N)CS)cc1-c1ccccc1
Reply: < 5.99

Query: Give pIC50 for NC(=O)Nc1cc(-c2cccc(F)c2)sc1C(=O)N[C@H]1CCCNC1 [AZD-7762]
Reply: 6.78

Query: Give pIC50 for COc1cc(N2CCC(N3CCN(C)CC3)CC2)ccc1Nc1ncc(Cl)c(Nc2ccccc2S(=O)(=O)C(C)C)n1 [TAE-684]
Reply: < 5.70

Query: Give pIC50 for NC1(c2ccc(-c3nc4ccn5c(=O)[nH]nc5c4cc3-c3ccccc3)cc2)CCC1 [MK-2206]
Reply: < 5.40

Query: Give pIC50 for Cc1ccc(C(=O)Nc2ccc(CN3CCN(C)CC3)c(C(F)(F)F)c2)cc1C#Cc1cnc2cccnn12 [PONATINIB]
Reply: > 8.70

Query: Give pIC50 for COc1ccc(-c2cc3nccn3c(Nc3ncccc3C(N)=O)n2)cc1OC
Reply: < 5.10

----------
tested on: CESS; experiment: SANGER: Inhibition of human CESS cell growth in a cell viability assay.; type: functional, cell-based; details: Homo sapiens, CESS
Assay metric: IC50

Query: Give IC50 for Cc1cc(N2CCOCC2)cc2[nH]c(-c3c(NC[C@@H](O)c4cccc(Cl)c4)cc[nH]c3=O)nc12
Reply: > 5.12 µM

Query: Give IC50 for Cc1ccc(NC(=O)c2ccc(CN3CCN(C)CC3)cc2)cc1Nc1nccc(-c2cccnc2)n1
Reply: > 2 µM

Query: Give IC50 for CCCCCCCCCCCC1=C(O)C(=O)C=C(O)C1=O
Reply: 6.24 µM

Query: Give IC50 for COc1ccc(N(C(=O)Oc2c(C)cccc2C)c2ccnc(Nc3ccc(N4CCN(C)CC4)cc3)n2)c(OC)c1
Reply: > 5.12 µM

Query: Give IC50 for COC(=O)[C@H](CCSC)NC(=O)c1ccc(NC[C@@H](N)CS)cc1-c1ccccc1
Reply: > 1.02 µM

Query: Give IC50 for COc1cc(N2CCC(N3CCN(C)CC3)CC2)ccc1Nc1ncc(Cl)c(Nc2ccccc2S(=O)(=O)C(C)C)n1
Reply: > 2 µM

----------
tested on: A 172; experiment: cells; type: functional, cell-based; conditions: Homo sapiens;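 also: growth inhibition of A172 cells, measured with a cell viability readout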
Description: SANGER: Inhibition of human A172 cell growth in a cell viability assay.
Entries annotated with measured pIC50
For clarity, pIC50 is expressed as the negative log10 of concentration in mol/L.

{"Compound": "COc1ccc(-c2cc3nccn3c(Nc3ncccc3C(N)=O)n2)cc1OC", "pIC50": 5.65}

Consider the additional compound presented here.
Query: Give pIC50 for C/C(=C\c1csc(C)n1)[C@@H]1C[C@@H]2O[C@]2(C)CCC[C@H](C)[C@H](O)[C@@H](C)C(=O)C(C)(C)[C@@H](O)CC(=O)O1 [PATUPILONE]
Reply: 8.72
